These data points were gathered from PubChem BioAssay (NCATS).

- ASSAY_NAME: MultiTox-Fluor Cytotoxicity Assay - LYMP1-002 - Dead Cells (AID 960);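 further: cells exposed to compound for 16 h at 37 °C; 0% = DMSO and 100% = tetraoctylammonium bromide; nearly all actives have a fitted effect of over 60% in size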
- SETTINGS: LYMP1-002 lymphoblastoid cells, dead-cell protease fluorescence; series mostly up to 46.1 µM
Records with an inconclusive call do not appear. The source made the active and inactive calls. The call rests on the fitted dose curve; in most records, active means well fitted cell-killing curve with a large enough effect; inconclusive means small, poorly fitted or top-dose-only effect, or effect the other way; inactive means no such curve, though single readings can be large or run the other way.
Write down the outcome that applies. Available outcomes: 1.0 (active), 0.0 (inactive)

Consider the worked cases shown below.
# MOLECULE, GROUP
data = [
    ("CCOP(=S)(OCC)Oc1ccc([N+](=O)[O-])cc1", 0.0),
    ("OCC1CO1 (configuration not stated)", 0.0),
    ("C=CCc1ccc(OC)cc1", 0.0),
    ("Brc1ccc(Oc2cc(Br)c(Br)cc2Br)c(Br)c1", 0.0),
    ("c1ccc(N=Nc2ccccc2)cc1", 0.0),
]

What is the recorded call for this molecule in the test? `CCCCOC(=O)c1ccccc1C(=O)OCCCC`
0.0
